Heads up, these molecules all have pIC50 values measured for UniProtKB Q9YQ12.
Sequence (Q9YQ12 whole entry): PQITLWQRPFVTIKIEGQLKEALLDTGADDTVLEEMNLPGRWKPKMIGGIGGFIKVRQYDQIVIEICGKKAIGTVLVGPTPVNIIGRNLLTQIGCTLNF
Keep it numeric: pIC50 is minus log10 of the concentration in mol/L.

In the examples that follow, each entry is paired with its recorded pIC50.
line-notation: O=C(O)CCCC#CC#C/C=C/CCCCCC/C=C/Br
pIC50: 4.92

line-notation: O=C(O)CCCC#CC#C/C=C/CCCC/C=C/C#CBr
pIC50: 5.15

line-notation: O=C(O)CCCC#C/C=C/CCCC/C=C/C#C/C=C/Br
pIC50: 5.00

We now examine a further molecule.
Request: For `O=C(O)CCCC#CC#C/C=C/CCCCC#C/C=C/Br` , what is its reported pIC50?
Response: 5.10
